- study_target: T1, GFRα4 isoform a (GFRα4a), Fc fusion with 6 His (human)
- T1 construct: the entry holds the whole fusion; also called GFR4α4a; immobilized GFRα4 isoform a
- T1 chain: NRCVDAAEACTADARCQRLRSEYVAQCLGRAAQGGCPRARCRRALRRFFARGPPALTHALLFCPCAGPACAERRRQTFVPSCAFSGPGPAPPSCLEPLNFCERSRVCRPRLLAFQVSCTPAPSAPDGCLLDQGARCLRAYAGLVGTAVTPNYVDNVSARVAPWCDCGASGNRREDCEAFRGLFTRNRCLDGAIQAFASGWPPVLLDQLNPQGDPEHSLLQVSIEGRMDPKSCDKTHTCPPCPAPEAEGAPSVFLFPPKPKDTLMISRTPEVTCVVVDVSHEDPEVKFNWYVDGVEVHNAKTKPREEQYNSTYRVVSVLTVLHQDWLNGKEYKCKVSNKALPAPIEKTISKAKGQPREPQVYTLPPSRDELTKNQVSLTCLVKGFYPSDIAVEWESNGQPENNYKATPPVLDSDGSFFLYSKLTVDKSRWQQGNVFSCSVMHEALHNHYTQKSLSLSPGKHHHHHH
- experiment_summary: phage ELISA, immobilized GFRα4a; first token of the cell
recorded_metric: binding result

{"binder": "12.H2m1.L1m1 (scFv, pIII not in the entry; order Vλ-linker-VH; The printed entry has an E before QSVKE of the VH; also called scFv 12) scFv: QFVLTQSPSASASLGASVKLTCTLSSAHKTYTIDWYQQQPEKGPRYLMQVKSDGSYTKGTGVPDRFSGSSSGADRYLTISSLQSEDEADYYCGADDNGGYVFGGGTQLTVTGGGSSRSSSSGGGGSGGGGEQSVKESGGGLVQPGGSLRLSCAASGFTLSRHALTWVRQAPGKGLEWIGAIDNAGTTYYASWAKSRFTISRNTDLHTVYLQMNSLRAEDTAVYFCARVFYDINSGYYLDGMDLWGPGTLVTVSS", "measured": "binds"}
{"binder": "4.H1m1.L3m1 (scFv, pIII not in the entry; order Vλ-linker-VH; also called scFv 4) scFv: QFVLTQPASVSGSPGQSITISCTLSSAHKTYTIDWYQQHPGKAPKYLMQVKSDGSYTKGTGVPNRFSGSSSGADRYLTISGLQAEDEADYVCGADDNGGYVFGGGTQLTVTGGGSSRSSSSGGGGSGGGGQQSVKESGPGLVKPSETLSLTCAVSGFSLSRHALTWVRQPPGKGLEWIGAIDNAGTTYYASWAKSRVTISRNTDLHTVSLKLSSVTAADTAVYFCARVFYDINSGYYLDGMDLWGPGTLVTVSS", "measured": "binds"}
